Ok so here's the combined literature set: pKi for the protein given by its sequence.
Sequence of the target: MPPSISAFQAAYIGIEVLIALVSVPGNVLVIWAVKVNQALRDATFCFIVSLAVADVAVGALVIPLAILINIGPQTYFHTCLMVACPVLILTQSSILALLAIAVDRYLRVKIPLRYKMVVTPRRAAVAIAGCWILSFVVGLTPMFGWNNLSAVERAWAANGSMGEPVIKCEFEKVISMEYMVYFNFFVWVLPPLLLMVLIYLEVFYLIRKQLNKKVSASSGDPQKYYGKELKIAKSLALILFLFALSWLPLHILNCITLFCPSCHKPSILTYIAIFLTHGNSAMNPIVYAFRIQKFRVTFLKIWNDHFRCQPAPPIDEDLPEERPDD
pKi: −log10 of the molar value.
The threshold is inclusive: pKi of exactly 7 counts as condition met; values below receive condition not met.

Some solved cases for reference:
>>> class_assignment("Cc1cc(-c2c(-c3ccccc3)nc(N)n3c(=O)n(Cc4ncc[nH]4)nc23)cc(C)n1")
"condition met"
>>> class_assignment("NNC(=O)[C@H]1O[C@@H](n2cnc3c(N)ncnc32)[C@H](O)[C@@H]1O")
"condition not met"
>>> class_assignment("CCCn1c(=O)c2nc(-c3ccc(S(=O)(=O)NCCN(C)C)cc3)[nH]c2n(CCC)c1=O")
"condition met"
>>> class_assignment("CCCn1nc2c(N3C[C@@H](C)O[C@@H](C)C3)c(-c3ccccc3)nc(N)n2c1=O")
"condition not met"
>>> class_assignment("CCNC(=O)C1OC(n2cnc3c(N)nc(C#CC(C)(O)c4ccccc4)nc32)C(O)C1O (stereo not given)")
"condition met"

Reported pKi at or above 7? Cc1cc(-c2c(-c3ccccc3)nc(N)n3c(=O)n(Cc4ccc(F)cn4)nc23)cc2c1N=NC2
condition met

Reported pKi at or above 7? CCNC(=O)C1OC(n2cnc3c(N)nc(C#CC(O)c4ccccc4)nc32)C(O)C1O (stereo not given)
condition met

Reported pKi at or above 7? Cc1cc(-c2sc(NC(=O)N3CC4(CNC(=O)N4)C3)nc2-c2cccc(C#N)c2)cc(C)n1
condition met

Reported pKi at or above 7? Cc1ccccc1CNc1ncnc2c1ncn2[C@@H]1O[C@H](CO)[C@@H](O)[C@H]1O
condition met

Reported pKi at or above 7? C[C@@H]1CN(c2c(-c3ccccc3)nc(N)n3c(=O)n(C[C@@H]4CCCN4C)nc23)C[C@H](C)O1
condition not met

Reported pKi at or above 7? C[C@@H]1CN(c2c(-c3ccccc3)nc(N)n3c(=O)n(C[C@H]4CCCO4)nc23)C[C@H](C)O1
condition not met

Reported pKi at or above 7? Cn1c(=O)c2[nH]c(-c3ccc(OCC(=O)N4CCCC4)cc3)nc2n(C)c1=O
condition not met

Reported pKi at or above 7? CCN(CC)CCNC(=O)COc1ccc(-c2nc3c([nH]2)c(=O)n(C)c(=O)n3C)cc1
condition not met

Reported pKi at or above 7? CCCn1c2nc(C34CCC(O)(CC3)CC4)nc-2c2n(c1=O)C[C@@H](C(C)C)N2
condition met

Reported pKi at or above 7? C[C@@H]1CN(c2c(-c3ccccc3)nc(N)n3c(=O)n(CCCF)nc23)C[C@H](C)O1
condition not met

====

- target_system: Adenosine receptor A1 (Homo sapiens, UniProt P30542)
- Sequence (P30542 whole entry): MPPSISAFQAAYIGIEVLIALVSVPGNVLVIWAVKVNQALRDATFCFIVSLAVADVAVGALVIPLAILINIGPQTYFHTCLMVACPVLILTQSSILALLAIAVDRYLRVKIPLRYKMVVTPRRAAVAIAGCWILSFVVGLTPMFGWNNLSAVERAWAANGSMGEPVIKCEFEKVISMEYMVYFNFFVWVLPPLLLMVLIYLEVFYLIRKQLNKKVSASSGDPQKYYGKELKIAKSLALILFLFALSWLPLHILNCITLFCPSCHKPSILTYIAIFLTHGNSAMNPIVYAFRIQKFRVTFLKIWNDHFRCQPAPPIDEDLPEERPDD
pKi: −log10 of the molar value.
Ok so here's the combined literature set: pKi for Adenosine receptor A1 (Homo sapiens, UniProt P30542).
The threshold is inclusive: pKi of exactly 7 counts as y; values below receive n.

Some solved cases for reference:
>>> class_assignment("CCCn1c(=O)c2c(nc3cc(OC)ccn32)n(CCCNC(=O)c2ccc(S(C)(=O)=O)cc2)c1=O")
"n"
>>> class_assignment("CCNC(=O)C1OC(n2cnc3c(N)nc(C#Cc4nccs4)nc32)C(O)C1O (stereo not given)")
"y"
>>> class_assignment("CCCOc1cc(N)nc(SCc2ccccc2)n1")
"n"
>>> class_assignment("Cc1cc(-c2sc(NC(=O)N3CC4(COC4)C3)nc2-c2cccc(C#N)c2C)cc(C)n1")
"n"

Lab note: next compound to report on.
Reported pKi at or above 7? CCN(CC)CCNC(=O)COc1cc(-c2nc3c([nH]2)c(=O)n(C)c(=O)n3C)ccc1OC
n

====

- target_system: Adenosine receptor A1 (Homo sapiens, UniProt P30542)
- Sequence (P30542 whole entry): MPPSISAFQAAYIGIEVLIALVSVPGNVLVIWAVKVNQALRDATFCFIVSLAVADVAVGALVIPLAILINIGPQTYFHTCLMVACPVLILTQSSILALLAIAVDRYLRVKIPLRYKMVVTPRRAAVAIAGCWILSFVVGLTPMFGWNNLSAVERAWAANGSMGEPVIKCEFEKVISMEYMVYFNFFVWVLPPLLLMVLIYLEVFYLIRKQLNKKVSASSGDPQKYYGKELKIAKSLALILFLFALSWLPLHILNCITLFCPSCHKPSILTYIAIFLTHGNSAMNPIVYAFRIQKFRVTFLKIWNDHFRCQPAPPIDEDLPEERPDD
Ok so here's the combined literature set: Ki for Adenosine receptor A1 (Homo sapiens, UniProt P30542).
// units = nM; emit number, no label

>>> readout_value("CCCn1c(=O)c2nc(-c3ccc(OCC(=O)O)cc3)[nH]c2n(Cc2ccc(N)c(I)c2)c1=O")
70

Give Ki (Adenosine receptor A1 (Homo sapiens, UniProt P30542)) of the following molecule: Cc1cc(-c2sc(NC(=O)N3CCC4(CC3)CNC(=O)O4)nc2-c2cccc(C#N)c2)cc(C)n1
75

Give Ki (Adenosine receptor A1 (Homo sapiens, UniProt P30542)) of the following molecule: Cc1cc(-c2sc(NC(=O)N3CC4(CNC(=O)C4)C3)nc2-c2cccc(C#N)c2)cc(C)n1
86

Give Ki (Adenosine receptor A1 (Homo sapiens, UniProt P30542)) of the following molecule: CCNC(=O)C1OC(n2cnc3c(N)nc(C#Cc4ccco4)nc32)C(O)C1O (stereo not given)
140

Give Ki (Adenosine receptor A1 (Homo sapiens, UniProt P30542)) of the following molecule: Cc1cc(-c2sc(NC(=O)N3CCC[C@H]3CO)nc2-c2cccc(C#N)c2)cc(C)n1
110
